Biological target: T1, ZFP SBS#740 (synthetic)
T1 chain: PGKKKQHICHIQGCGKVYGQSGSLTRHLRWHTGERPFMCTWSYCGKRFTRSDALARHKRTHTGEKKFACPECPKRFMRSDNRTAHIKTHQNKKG
Assay: EMSA
Details: tags: MBP fusion
measured-attribute: Kd (nM)
Give a bare numeral; the unit nM is implied.

Recorded Kd for AAGGTGGCAG (dsDNA) DNA 1: AAGGTGGCAG DNA 2: CTGCCACCTT , please? 12.5
